The measured values listed here are drawn from ChEMBL document CHEMBL5303711.

Assay: Cytotoxicity activity against human HepG2 cells assessed by CellTiter-Glo luminescent cell viability assay.
Format: toxicity, cell-based
Set-up: assay stage confirmatory assay, source tissue liver
Test parameters: HepG2 cells, read-out: IC50 relative
Counter-ions that a name gives are not always drawn. Activity calls are given as the source filed them. No rule for the calls is given here.
Valid outcomes are listed here; reply with one: active, inactive

**Query** How was O=[N+]([O-])c1ccc(CN2CCOCCOCCN(Cc3ccc([N+](=O)[O-])cc3)CCOCC2)cc1 classified in this test?
**Result** active

**Query** Thanks! And Cc1cccc(NC(=O)C2CCN(S(=O)(=O)c3cn(C(C)C)cn3)CC2)c1 ?
**Result** inactive

**Query** Then what about the molecule N#Cc1c(Oc2ccc(F)c(NC(=O)Cc3cccc(C(F)(F)F)c3)c2)ccc2nc(NC(=O)C3CC3)sc12 ?
**Result** active

**Query** And CCCNC(=O)N1CC(Oc2ccc(-c3noc(-c4ccncc4)n3)cc2)C1 ?
**Result** active

**Query** Now consider FC(F)(F)c1ccc(CNc2ccc(Cc3c[nH]c4ncc(Cl)cc34)cn2)cn1 .
**Result** active

**Query** And what about the molecule O=S(=O)(c1ccccc1)N(CC(F)(F)F)c1ccc(C(O)(C(F)(F)F)C(F)(F)F)cc1 ?
**Result** inactive

**Query** What do you have for CC1(C)C=Cc2c(ccc3c2OC[C@@H](c2ccc(O)cc2O)C3)O1 ?
**Result** active

**Query** Try O[C@H]1C[C@@H](c2cc(N3CCC(Oc4ccccc4Cl)CC3)ncn2)C1 next.
**Result** active

**Query** Try this molecule next: COC1(C(=O)N2CCO[C@H](c3ccccc3C)C2)CS(=O)(=O)C1
**Result** active

**Query** // repeat for Cn1cc(S(=O)(=O)N2CCCC2)cc1C(=O)Nc1nc(-c2ccccn2)cs1 and report
**Result** inactive

**Query** For Cn1nc(C(=O)Nc2ccc(Oc3ccc(F)cc3)cn2)ccc1=O then?
**Result** active

**Query** Could you do the same for O=C1c2ccccc2C(=O)c2oc(-c3ccccc3)nc21 , please?
**Result** active

**Query** And for N#Cc1ccc(CN2CCN(C(=O)c3ccc(Cn4cccn4)cc3)CC2)cc1 ?
**Result** active

**Query** C[C@H]1Cc2cc(S(N)(=O)=O)ccc2N1Cc1cc(=O)n2cc(Cl)ccc2n1 ?
**Result** active

**Query** Item: O=C(Nc1ccc(Cl)cc1)Nc1ccc(Cl)c(Cl)c1
**Result** inactive

**Query** Please answer likewise for CC1=NNc2nc3c(c(=O)n(Cc4ccccc4Cl)c(=O)n3C)n2[C@H]1C
**Result** inactive

**Query** And the next one, C[C@@H]1CC[C@@]2(OC1)O[C@H]1C[C@H]3[C@@H]4CC=C5C[C@@H](O[C@@H]6O[C@H](CO)[C@@H](O[C@@H]7O[C@@H](C)[C@H](O)[C@@H](O)[C@H]7O)[C@H](O)[C@H]6O[C@@H]6O[C@@H](C)[C@H](O)[C@@H](O)[C@H]6O)CC[C@]5(C)[C@H]4CC[C@]3(C)[C@H]1[C@@H]2C ?
**Result** active

**Query** Continue with CNc1cc2c(Nc3cccc(Br)c3)ncnc2cn1
**Result** inactive

**Query** Same lookup for C=CC(=O)N1CCN(CCCn2c(=O)c(-c3c(Cl)c(OC)cc(OC)c3Cl)cc3cnc(NC)nc32)CC1 , please.
**Result** active

**Query** Can you check CC(=O)Nc1nc(C)c(-c2ccc(Cl)c(S(=O)(=O)NCCO)c2)s1 next?
**Result** active

**Query** And the next one, CC(=O)N1CCCc2cc(S(=O)(=O)N3CCCC(C(=O)N4CCN(c5ccccc5)CC4)C3)ccc21 (stereo not drawn) ?
**Result** inactive

**Query** What about this molecule? COc1cc(N2CCC(N)CC2)ccc1Nc1ncc(Cl)c(-c2c[nH]c3ccccc23)n1
**Result** active

**Query** Another molecule to look at: CN(C)Cc1ccc(-c2nc3cccc4c3n2CCNC4=O)cc1
**Result** active

**Query** Okay, and CC(C)[C@H](NC1CCN(C(=O)c2ccco2)CC1)c1ccccc1 ?
**Result** inactive

**Query** Now the same for C#Cc1cccc(Nc2ncnc3cc(OCCOC)c(OCCOC)cc23)c1 [ERLOTINIB HYDROCHLORIDE]
**Result** inactive

**Query** For O=c1cc(N2CCOCC2)oc2c(-c3cccc4c3sc3ccccc34)cccc12 then?
**Result** active

**Query** Field entry: Cc1ccc(C)c(-n2sc3cc(F)ccc3c2=O)c1
**Result** active

**Query** # repeat for Cn1ncnc2c(=O)n(C)c(=O)nc1-2
**Result** active

**Query** Another molecule to look at: O=C(Nc1cccc2cccnc12)c1cccc2cn[nH]c12
**Result** inactive

**Query** How about this molecule: COc1ccc2nc(NC(=O)CN3C(=O)c4ccccc4S3(=O)=O)sc2c1
**Result** inactive

**Query** What do you get for CCCCCCCC(=O)N[C@H](CN1CCCC1)[C@H](O)c1ccc2c(c1)OCCO2 ?
**Result** inactive

**Query** Then CCCCc1c(C)[nH]n(-c2nc3ccccc3[nH]2)c1=O ?
**Result** active

**Query** Can you handle Cc1cc(NCCCN2CCC(C)CC2)c2ccccc2n1 next?
**Result** active

**Query** Further, for NC(=O)Nc1sc(-c2ccccc2)cc1C(N)=O ?
**Result** active

**Query** Can you handle CS(=O)(=O)N1CCc2ccc(NC(=O)Nc3cccc(Cl)c3)cc21 next?
**Result** active

**Query** # repeat for C[C@]1(O)C[C@@H](c2nc(-c3ccc4ccc(-c5ccccc5)nc4c3)c3c(N)nccn32)C1
**Result** active

**Query** And what about the molecule CN1CCN(c2ccc(OC(F)(F)F)c(Nc3ncc4c(n3)-c3c(c(C(N)=O)nn3CCO)CC4)c2)CC1 ?
**Result** active

**Query** Then C=CCNC1=C2C[C@@H](C)C[C@H](OC)[C@H](O)[C@@H](C)/C=C(/C)[C@H](OC(N)=O)[C@@H](OC)/C=C\C=C(\C)C(=O)NC(=CC1=O)C2=O ?
**Result** active
